- testTarget: PsHv1 (Picea sitchensis)
- Construct: full-length channel (ABR16431.1, 260 a.a.) expressed in Xenopus oocytes
- Sequence (B8LLA1 1-260): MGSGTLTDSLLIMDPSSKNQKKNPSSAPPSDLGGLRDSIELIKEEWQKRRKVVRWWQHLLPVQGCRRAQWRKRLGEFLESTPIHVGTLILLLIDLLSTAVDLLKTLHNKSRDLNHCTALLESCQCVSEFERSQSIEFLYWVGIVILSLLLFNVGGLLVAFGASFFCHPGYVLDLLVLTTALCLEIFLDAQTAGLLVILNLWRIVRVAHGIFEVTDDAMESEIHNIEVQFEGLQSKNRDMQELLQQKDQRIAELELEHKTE
- experimentalDetails: inside-out patch-clamp of proton currents, Hill fit
measuredEndpoint: IC50 (µM)
Entry rule: numbers only, all in µM.

[
  {
    "mol": "N=C(N)Nc1nc2ccc(Cl)cc2[nH]1",
    "readoutUnits": "µM",
    "testResult": 39
  }
]

Consider now this further compound.
// sample "N=C(N)Nc1nc2ccccc2[nH]1" , its IC50 was 372
